system: 559 E. faecalis (GSE); experiment: MIC, broth microdilution in Meuller-Hinton broth (NCCLS); assay type: cell-based, Enterococcus faecalis; conditions: glycopeptide-sensitive clinical isolate

MOLECULE	VALUE_UNITS	MIC 559 E. faecalis (GSE)
CCCCc1ccc(CNCC(=O)NC2(C)CC(OC3C(Oc4c5cc6cc4Oc4ccc(cc4Cl)C(O)C4NC(=O)C(NC(=O)C6NC(=O)C(CC(N)=O)NC(=O)C(NC(=O)C(CC(C)C)NC)C(O)c6ccc(c(Cl)c6)O5)c5ccc(O)c(c5)-c5c(O)cc(O)cc5C(C(=O)NCc5ccc(F)cc5)NC4=O)OC(CO)C(O)C3O)OC(C)C2O)cc1 (stereo not drawn)	µg/mL	4
CCCCOc1ccc(CNCC(=O)NC2(C)CC(OC3C(Oc4c5cc6cc4Oc4ccc(cc4Cl)C(O)C4NC(=O)C(NC(=O)C6NC(=O)C(CC(N)=O)NC(=O)C(NC(=O)C(CC(C)C)NC)C(O)c6ccc(c(Cl)c6)O5)c5ccc(O)c(c5)-c5c(O)cc(O)cc5C(C(=O)O)NC4=O)OC(CO)C(O)C3O)OC(C)C2O)cc1 (stereo not drawn)	µg/mL	1
CNC(CC(C)C)C(=O)NC1C(=O)NC(CC(N)=O)C(=O)NC2C(=O)NC3C(=O)NC(C(=O)NC(C(=O)O)c4cc(O)cc(O)c4-c4cc3ccc4O)C(OC3CC(C)(N)C(O)C(C)O3)c3ccc(cc3)Oc3cc2cc(c3OC2OC(CO)C(O)C(O)C2OC2CC(C)(NC(=O)[C@@H](N)Cc3ccc(OCc4ccccc4)cc3)C(O)C(C)O2)Oc2ccc(cc2Cl)C1O (stereo partly drawn)	µg/mL	2
